Target: nucleotide binding site (NBS) of IgEs
Test: Fluorescence quenching binding of NBS ligand
Conditions: monovalent affinity; listed as 2-naphthaleneacetic acid
measured.parameter: pKd
Scale explanation: pKd corresponds to minus log10 of a concentration expressed in moles per litre.

Incoming: Look up pKd: O=C(O)Cc1ccc2ccccc2c1
Outgoing: 5.70

Values were extracted from patent US20240343835A1.
